- STUDY_TARGET: hPDE2A (Homo sapiens, UniProt O00408)
- Construct: made in house; host or cells: Sf9 insect cells (baculovirus)
- Sequence (O00408 whole entry): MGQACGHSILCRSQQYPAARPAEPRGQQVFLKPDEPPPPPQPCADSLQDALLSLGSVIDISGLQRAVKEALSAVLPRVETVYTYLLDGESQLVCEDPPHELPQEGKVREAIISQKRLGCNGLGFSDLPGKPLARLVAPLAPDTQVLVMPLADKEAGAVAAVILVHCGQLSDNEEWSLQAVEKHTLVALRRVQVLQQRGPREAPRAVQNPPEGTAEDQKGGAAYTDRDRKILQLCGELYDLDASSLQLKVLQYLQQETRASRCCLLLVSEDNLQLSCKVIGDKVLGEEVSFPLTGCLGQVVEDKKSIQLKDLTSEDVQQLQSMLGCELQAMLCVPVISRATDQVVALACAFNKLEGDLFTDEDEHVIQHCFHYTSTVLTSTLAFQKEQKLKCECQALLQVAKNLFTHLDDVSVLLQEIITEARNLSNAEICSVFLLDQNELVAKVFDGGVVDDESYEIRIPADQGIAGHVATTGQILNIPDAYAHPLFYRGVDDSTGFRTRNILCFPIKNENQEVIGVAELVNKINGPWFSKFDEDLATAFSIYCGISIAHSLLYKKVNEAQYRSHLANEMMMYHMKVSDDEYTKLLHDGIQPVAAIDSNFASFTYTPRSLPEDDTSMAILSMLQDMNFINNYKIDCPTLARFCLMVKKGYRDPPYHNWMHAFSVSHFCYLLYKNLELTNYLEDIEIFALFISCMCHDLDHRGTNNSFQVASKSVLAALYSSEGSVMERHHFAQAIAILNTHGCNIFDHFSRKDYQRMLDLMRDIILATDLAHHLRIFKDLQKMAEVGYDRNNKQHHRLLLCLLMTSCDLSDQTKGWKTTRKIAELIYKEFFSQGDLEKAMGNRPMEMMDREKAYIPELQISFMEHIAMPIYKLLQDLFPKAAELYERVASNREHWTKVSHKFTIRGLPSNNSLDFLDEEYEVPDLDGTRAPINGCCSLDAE
- METHOD_SUMMARY: In vitro assay PDE2A (SPA, 3H-cGMP)
- Assay type: biochemical
- RUN_PARAMETERS: read-out: hPDE2A Emax
Please provide measured Emax for the entries that follow.
One number for each entry, in %.

Solved entries:
{"columns": ["COMPOUND", "RECORDED_METRIC", "UNIT_ANNOTATION", "OBSERVED"],
 "data": [
  ["C[C@@H]1CCN(c2ccc(C#N)cn2)C[C@H]1c1cc(C(F)F)nc2ncnn12", "Emax", "%", 99],
  ["Cc1ccc(C#N)c(N2CC[C@@H](C)[C@H](c3cc(C(F)F)nc4ncnn34)C2)n1", "Emax", "%", 100],
  ["C[C@@H]1CCN(c2nccc3[nH]ccc23)C[C@H]1c1cc(C(F)F)nc2ncnn12", "Emax", "%", 101],
  ["C[C@@H]1CCN(c2ccccn2)C[C@H]1c1cc(C(F)F)nc2ncnn12.Cl", "Emax", "%", 86],
  ["Cc1cc([C@@H]2CN(c3nccc4ccccc34)CC[C@H]2C)n2ncnc2n1", "Emax", "%", 100]
]}

For each of the compounds below, note its Emax.
1. C[C@@H]1CCN(c2ccnc3ccccc23)C[C@H]1c1cc(C(F)F)nc2ncnn12
2. C[C@@H]1CCN(c2nccc3cccnc23)C[C@H]1c1cc(C(F)F)nc2ncnn12
3. C[C@@H]1CCN(c2nccc3ccc(Br)cc23)C[C@H]1c1cc(C(F)F)nc2ncnn12
4. Cc1cc([C@@H]2CN(c3nccc4ccc(Cl)cc34)CC[C@H]2C)n2ncnc2n1

# output
1: 99; 2: 95; 3: 96; 4: 100

For each of the compounds below, note its Emax.
1. Cc1cccc2ccnc(N3CC[C@@H](C)C(c4cc(C(F)F)nc5ncnn45)C3)c12 (some centres unmarked)
2. C[C@@H]1CCN(c2ncc(C(F)(F)F)cc2Br)C[C@H]1c1cc(C(F)F)nc2ncnn12
3. CC(C)Oc1cccnc1N1CC[C@H](C)[C@@H](c2cc(C(F)F)nc3ncnn23)C1.Cl
4. C[C@@H]1CCN(c2cc(C#N)ccn2)C[C@H]1c1cc(C(F)F)nc2ncnn12
5. COc1ccnc(N2CC[C@@H](C)[C@H](c3cc(C(F)F)nc4ncnn34)C2)c1OC.Cl
6. FC(F)c1cc([C@H]2CC[C@H]3CC[C@@H]2N3c2c(Br)ccc3ccncc23)n2ncnc2n1
7. C[C@@H]1CCN(c2nccc3ccc(O)cc23)C[C@H]1c1cc(C(F)F)nc2ncnn12
8. C[C@@H]1CCN(c2nccc3ccccc23)C[C@H]1c1cc(C(F)F)nc2ncnn12

# output
99
100
30
100
89
100
101
101
